Tested on: Fibroblast
measurement notes: Multiplex assay against human fibroblast
Assay type: toxicity, cell-based
condition info: 24 h, 1 µM, compound concentration 1 uM, replicate 1
measure name: Population Mitochondria Different-Phenotype (%)
Use % as the unit, but write only the number.

| compound | assay result |
| --- | --- |
| CN(C)CCOc1ccc(-c2nc(-c3ccncc3)c(-c3ccc4c(c3)CC/C4=N\O)[nH]2)cc1 [SB590885] | 0 |

// query Return Population Mitochondria Different-Phenotype (%) for the following compound: c1ccc2oc(-c3csc(C4CCN(Cc5nc6ncccc6[nH]5)CC4)n3)cc2c1
// result 4

// query Return Population Mitochondria Different-Phenotype (%) for the following compound: COc1cc2c(NC3CCN(C(C)C)CC3)nc(N3CCC(F)(F)CC3)nc2cc1OCCCN1CCCC1
// result 4

// query Return Population Mitochondria Different-Phenotype (%) for the following compound: N#Cc1cnc(Nc2cc(NC[C@H]3CNCCO3)c(C(F)(F)F)cn2)cn1 [SRA-737]
// result 2

----------
System: Fibroblast
measurement notes: Incucyte cell viability with human fibroblast; also: filed as whole numbers so only -1 and 0 and 1 occur
Assay type: toxicity, cell-based
condition info: 0 h, 10 µM, compound concentration 10 uM, replicate number 1, timepoint 0 hours
Documented Growth Rate across a set of compounds
No unit in the answer, please; the number alone is enough.

| compound | test target | assay result |
| --- | --- | --- |
| CC(=O)N1CCC(c2ccc(C(=O)NC3=NCCN3)cc2C(F)(F)F)CC1 | Fibroblast | 0 |
| CS(=O)(=O)c1cc(C2(NC(=O)c3cncc4c3cnn4-c3ccc(F)cc3)CC2)ccn1 | Fibroblast | 0 |
| CCOc1cc(N2CCC(O)CC2)ccc1Nc1ncc2c(n1)N(C1CCCC1)CCC(=O)N2C | Fibroblast | 1 |
| Nc1nc(NCc2ccccc2)nc(-c2cccc(CO)c2)n1 | Fibroblast | 0 |
| Nc1ccc(C(=O)Nc2cccc(-c3nc(N4CCOCC4)c4oc5ncccc5c4n3)c2)cn1 | Fibroblast | 0 |

// query Return Growth Rate for the following compound: N#Cc1ccccc1OCC(O)CNCCNC(=O)Nc1ccccc1 (stereo not drawn)
// result 0

// query Return Growth Rate for the following compound: CN(C)CCCn1cc(C2=C(c3c[nH]c4ccccc34)C(=O)NC2=O)c2ccccc21
// result 0

----------
System: U2OS
measurement notes: Incucyte cell viability with U2OS; also: filed as whole numbers so only -1 and 0 and 1 occur
Format: toxicity, cell-based
condition info: human, 0 h, 10 µM, compound concentration 10 uM, replicate number 1, timepoint 0 hours
measure name: Growth Rate
No unit in the answer, please; the number alone is enough.

Example results:
| molecule | test target | measure name | assay result |
| --- | --- | --- | --- |
| CCCCc1nc(Cl)c(CO)n1Cc1ccc(-c2ccccc2-c2nn[nH]n2)cc1 | U2OS | Growth Rate | 0 |
| FC(F)c1nc2ccccc2n1-c1nc(N2CCOCC2)nc(N2CCOCC2)n1 | U2OS | Growth Rate | 1 |
| O=C(NCc1ccc(F)cc1)C1CCN(S(=O)(=O)c2cc(Cl)cc(Cl)c2)CC1 | U2OS | Growth Rate | 0 |

// query Return Growth Rate for the following molecule: CC(=O)[C@@]1(O)CC[C@H]2[C@@H]3C[C@H](C)C4=CC(=O)CC[C@]4(C)[C@H]3CC[C@@]21C
// result 1

// query Return Growth Rate for the following molecule: CN(C)C/C=C/C(=O)Nc1cc2c(Nc3ccc(F)c(Cl)c3)ncnc2cc1O[C@H]1CCOC1.O=C(O)/C=C\C(=O)O.O=C(O)/C=C\C(=O)O [AFATINIB DIMALEATE]
// result 0

// query Return Growth Rate for the following molecule: CCNC(=O)c1cc2c(N3CCOC[C@@H]3C)ccnc2[nH]1
// result 1

// query Return Growth Rate for the following molecule: O=C(O)c1ccc2cc(-c3ccc(O)c(C45CC6CC(CC(C6)C4)C5)c3)ccc2c1
// result 0

// query Return Growth Rate for the following molecule: CN1CC(=O)N=C1NC(=O)Nc1cccc(Cl)c1 [FENOBAM ANHYDROUS]
// result 0

----------
Test system: HEK-293T
measurement notes: Multiplex assay against HEK293T
Assay type: toxicity, cell-based
condition info: human, 48 h, 10 µM, compound concentration 10 uM, replicate 1
measure name: Population Healthy Nuclei (%)
Use % as the unit, but write only the number.

Example results:
| compound | Population Healthy Nuclei (%) |
| --- | --- |
| CC(C)Oc1ccc(C(=O)N[C@H](CNC(=O)CN(C)C)Cc2ccc(-c3cn4cccc([C@H](C)O)c4n3)cc2)cc1Cl [GSK-923295A] | 46 |
| Cc1nc(Cc2cccc(C(F)(F)F)c2)sc1-c1ccc(C(N)=O)nc1 [TP-024n] | 27 |
| CCCn1c(=O)c2[nH]c(C34CC5CC(CC3C5)C4)nc2n(CCC)c1=O | 31 |

// query Return Population Healthy Nuclei (%) for the following compound: Cc1cc2c(cc1N1C(=O)c3cccc4c(CCCO)ccc(c34)C1=O)n(C)c(=O)n2C
// result 64

// query Return Population Healthy Nuclei (%) for the following compound: CCc1cc2c(cc1CC)CC(NC[C@H](O)c1ccc(O)c3[nH]c(=O)ccc13)C2
// result 2

// query Return Population Healthy Nuclei (%) for the following compound: C1=N/C2=N/c3ccc(OCCN4CCCC4)c(c3)COC/C=C\COCc3cccc(c3)C(=C1)N2
// result 0

----------
Test system: Fibroblast
measurement notes: Multiplex assay against human fibroblast
Format: toxicity, cell-based
condition info: 12 h, 10 µM, compound concentration 10 uM, replicate 1
Decision: Population Pyknosed Nuclei (%) beneath 20% gives criterion met; Population Pyknosed Nuclei (%) meeting or exceeding 20% gives criterion not met.

Solved entries (count: 5):
| compound | assigned label |
| --- | --- |
| CN(C)C/C=C/C(=O)Nc1cc2c(Nc3ccc(F)c(Cl)c3)ncnc2cc1O[C@H]1CCOC1.O=C(O)/C=C\C(=O)O.O=C(O)/C=C\C(=O)O [AFATINIB DIMALEATE] | criterion not met |
| Cc1nc(Cc2cccc(C(F)(F)F)c2)sc1-c1ccc(C(N)=O)nc1 [TP-024n] | criterion not met |
| Cc1cn(-c2cc(NC(=O)c3ccc4c(c3)CN(c3cncnc3)C[C@@H]4C)cc(C(F)(F)F)c2)cn1 | criterion met |
| CC(=O)c1cc(-c2cc(C(=O)NC3CC3)ccc2C)c2ncccn12 | criterion not met |
| Nc1ccc(C(=O)Nc2cccc(-c3nc(N4CCOCC4)c4oc5ncccc5c4n3)c2)cn1 | criterion met |

// query Criterion: Population Pyknosed Nuclei (%) strictly below 20%. Is it met by CCn1c(-c2nonc2N)nc2cnc(Oc3cccc(NC(=O)c4ccc(OCCN5CCOCC5)cc4)c3)cc21 [GSK-269962A] ?
// result criterion not met

// query Criterion: Population Pyknosed Nuclei (%) strictly below 20%. Is it met by c1ccc2oc(-c3csc(C4CCN(Cc5nc6ncccc6[nH]5)CC4)n3)cc2c1 ?
// result criterion met

// query Criterion: Population Pyknosed Nuclei (%) strictly below 20%. Is it met by CC(C)(C)c1cnc(CSc2cnc(NC(=O)C3CCNCC3)s2)o1 ?
// result criterion met

----------
Tested on: Fibroblast
measurement notes: Multiplex assay against human fibroblast
Format: toxicity, cell-based
condition info: 48 h, 1 µM, compound concentration 1 uM, replicate 2
Documented Population Healthy Nuclei (%) across a set of molecules
Use % as the unit, but write only the number.

Example results:
| molecule | Population Healthy Nuclei (%) |
| --- | --- |
| CNc1oc(-c2cccc3ccccc23)nc1C#N | 19 |
| CCc1cc2c(cc1CC)CC(NC[C@H](O)c1ccc(O)c3[nH]c(=O)ccc13)C2 [INDACATEROL] | 60 |

// query Give the observed Population Healthy Nuclei (%) of COc1cc2c(NC3CCN(C(C)C)CC3)nc(N3CCC(F)(F)CC3)nc2cc1OCCCN1CCCC1 for Fibroblast.
// result 44

----------
Test system: HEK-293T
measurement notes: Multiplex assay against HEK293T;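 as to Population Tubulin-Different-Phenotype (%): share of the cells with healthy nuclei that show this phenotype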
Type: toxicity, cell-based
condition info: human, 12 h, 1 µM, compound concentration 1 uM, replicate 1
yes means recorded Population Tubulin-Different-Phenotype (%) is 40% or above; no means it is below 40%.

Solved entries (count: 3):
| compound | assigned label |
| --- | --- |
| c1ccc2oc(-c3csc(C4CCN(Cc5nc6ncccc6[nH]5)CC4)n3)cc2c1 | no |
| CNC(=O)c1cc(Oc2ccc(NC(=O)Nc3cc(C(C)(C)C)nn3-c3ccc4ncccc4c3)c(F)c2)ccn1 | no |
| Cl.Cl.Nc1ncnc2c1c(-c1cccc(OCc3ccccc3)c1)cn2[C@H]1C[C@@H](CN2CCC2)C1 | yes |

// query Hi team, for CCOc1cc2ncc(C#N)c(Nc3ccc(OCc4cccc(F)c4)c(Cl)c3)c2cc1NC(=O)/C=C/CN(C)C , is the recorded Population Tubulin-Different-Phenotype (%) at or above 40%?
// result no

// query Hi team, for CCCn1c(=O)c2[nH]c(C34CC5CC(CC3C5)C4)nc2n(CCC)c1=O , is the recorded Population Tubulin-Different-Phenotype (%) at or above 40%?
// result yes

// query Hi team, for CN(C)CCOc1ccc(-c2nc(-c3ccncc3)c(-c3ccc4c(c3)CC/C4=N\O)[nH]2)cc1 , is the recorded Population Tubulin-Different-Phenotype (%) at or above 40%?
// result yes

// query Hi team, for CCn1c(-c2nonc2N)nc2cnc(Oc3cccc(NC(=O)c4ccc(OCCN5CCOCC5)cc4)c3)cc21 [GSK-269962A] , is the recorded Population Tubulin-Different-Phenotype (%) at or above 40%?
// result yes

// query Hi team, for N#Cc1cnc(Nc2cc(NC[C@H]3CNCCO3)c(C(F)(F)F)cn2)cn1 , is the recorded Population Tubulin-Different-Phenotype (%) at or above 40%?
// result no

// query Hi team, for Nc1nc2c(c(N3CCNCC3)n1)CCC1=C2[C@@H]2CCCC[C@@H]2O1 , is the recorded Population Tubulin-Different-Phenotype (%) at or above 40%?
// result yes

// query Hi team, for CNC(=O)c1nn(C)c2c1C(C)(C)Cc1cnc(Nc3ccc(N4CCN(C)CC4)cc3)nc1-2 , is the recorded Population Tubulin-Different-Phenotype (%) at or above 40%?
// result yes

// query Hi team, for COc1ccc(NS(=O)(=O)c2sc3ccc(Cl)cc3c2C)cc1N1CCNCC1.Cl , is the recorded Population Tubulin-Different-Phenotype (%) at or above 40%?
// result no

// query Hi team, for CC(=O)c1cc(-c2cc(C(=O)NC3CC3)ccc2C)c2ncccn12 , is the recorded Population Tubulin-Different-Phenotype (%) at or above 40%?
// result no

// query Hi team, for Nc1ccc(C(=O)Nc2cccc(-c3nc(N4CCOCC4)c4oc5ncccc5c4n3)c2)cn1 , is the recorded Population Tubulin-Different-Phenotype (%) at or above 40%?
// result yes

// query Hi team, for CC(C)N1CCC(C)(C)c2cc(C#Cc3ccc(C(=O)O)cc3)ccc21 , is the recorded Population Tubulin-Different-Phenotype (%) at or above 40%?
// result yes
